Numbers sourced from patent US20250304707A1.

Measured Fluorescent signal level (sample/background) values are reported for all entries that follow.
# assayTarget: T1, human BCMA on the surface of RPMI8226 cells (human, UniProt Q02223 1-184)
# T1 construct: whole, on cells; also called BCMA receptor; RPMI8226 (BCMA+)
# T1 sequence (looked up): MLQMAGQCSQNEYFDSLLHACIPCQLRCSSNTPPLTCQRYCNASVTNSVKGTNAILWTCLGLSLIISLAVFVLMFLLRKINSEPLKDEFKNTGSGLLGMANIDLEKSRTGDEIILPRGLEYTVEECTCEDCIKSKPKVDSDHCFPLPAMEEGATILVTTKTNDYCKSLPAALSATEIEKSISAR
# testDetails: flow cytometry on RPMI8226 (BCMA+) cells, anti-human Fc-PE, one antibody concentration (not given)
Field format: numeric only.

1) Antibody 01-026 (antibody, human IgG1, kappa, L234A L235A, V domains shown, Full-length human IgG1 with L234A/L235A (pEE-HCLALA IgG1 vector) and CK light chain constant domain (pEE-CK), made in CHO-T cells; also called candidate 026) VH: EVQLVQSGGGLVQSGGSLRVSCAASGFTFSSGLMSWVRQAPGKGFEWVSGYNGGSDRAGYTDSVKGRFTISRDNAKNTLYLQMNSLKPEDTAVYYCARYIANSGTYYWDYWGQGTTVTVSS VL: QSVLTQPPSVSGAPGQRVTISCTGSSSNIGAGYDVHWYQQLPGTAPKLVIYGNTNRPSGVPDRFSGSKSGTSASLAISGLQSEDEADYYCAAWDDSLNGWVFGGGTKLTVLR: 12.1

// Antibody 01-030 (antibody, human IgG1, kappa, L234A L235A, V domains shown, Full-length human IgG1 with L234A/L235A (pEE-HCLALA IgG1 vector) and CK light chain constant domain (pEE-CK), made in CHO-T cells; also called candidate 030) VH: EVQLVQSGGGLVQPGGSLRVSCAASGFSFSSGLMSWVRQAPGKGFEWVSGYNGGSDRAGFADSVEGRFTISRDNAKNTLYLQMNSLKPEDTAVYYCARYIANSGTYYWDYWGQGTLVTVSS VL: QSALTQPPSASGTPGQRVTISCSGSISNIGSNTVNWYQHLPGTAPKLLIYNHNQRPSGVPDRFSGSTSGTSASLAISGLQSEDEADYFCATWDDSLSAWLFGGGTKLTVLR : Fluorescent signal level (sample/background) value = 16.5

According to the records, this binder Antibody 01-024 (antibody, human IgG1, kappa, L234A L235A, V domains shown, Full-length human IgG1 with L234A/L235A (pEE-HCLALA IgG1 vector) and CK light chain constant domain (pEE-CK), made in CHO-T cells; also called candidate 024) VH: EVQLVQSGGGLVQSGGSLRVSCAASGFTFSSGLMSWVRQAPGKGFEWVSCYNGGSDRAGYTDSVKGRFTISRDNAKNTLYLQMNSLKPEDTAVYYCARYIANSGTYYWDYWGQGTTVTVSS VL: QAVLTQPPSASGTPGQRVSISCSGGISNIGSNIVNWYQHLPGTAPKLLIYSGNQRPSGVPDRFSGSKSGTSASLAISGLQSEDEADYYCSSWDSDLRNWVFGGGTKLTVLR displays Fluorescent signal level (sample/background) of 19.9

Just so you know, measured Fluorescent signal level (sample/background) for Antibody 01-001 (antibody, human IgG1, kappa, L234A L235A, V domains shown, Full-length human IgG1 with L234A/L235A (pEE-HCLALA IgG1 vector) and CK light chain constant domain (pEE-CK), made in CHO-T cells; also called candidate 01) VH: EVQLVQSGGGLVQPGGSLRLSCAVSGFTLSSSAMSWVRQAPGKGFEWVSGYNGGSDRAGFADSVEGRFTISRDNAKNTLYLQMNSLKPEDTAVYYCARYIANSGTYYWDYWGQGTLVTVSS VL: QPVLTQPPSASGTPGQRVTISCSGSSSNIGSNTVNWYQQLPGTAPKLLIYNDSQRPSGVPDQFSGSKSGTSASLAISGLQSDNEADYYCAAWDGSLNVWMFGGGTKVTVLR came out at 10.7

response.value for Antibody 01-037 (antibody, human IgG1, kappa, L234A L235A, V domains shown, Full-length human IgG1 with L234A/L235A (pEE-HCLALA IgG1 vector) and CK light chain constant domain (pEE-CK), made in CHO-T cells; also called candidate 037) VH: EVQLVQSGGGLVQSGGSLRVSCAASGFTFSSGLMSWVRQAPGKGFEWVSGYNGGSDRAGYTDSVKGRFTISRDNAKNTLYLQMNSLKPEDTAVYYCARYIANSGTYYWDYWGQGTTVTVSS VL: SYVLTQPPSASGTPGQRVTISCSGTRSNIGTNTVNWYQQLPGTAPKLLIYRNNQRPSGVPDRFSGSKSGTSASLAISGLQSEDEADYYCAVWDDRVSAWLFGGGTKLTVLR (field: Fluorescent signal level (sample/background)) = 11.7
